Tested on: SARS-CoV-2 PsV D614G
Assay type: cell-based
Conditions: read-out: IC50, inhibition of PsV entry
pIC50: −log10 of the molar value.
TEST READOUT: pIC50

Data request: Form field: reported pIC50 of CN(C)C(=O)COC(=O)Cc1ccc(OC(=O)c2ccc(NC(=N)N)cc2)cc1 [Camostat]
Data returned: < 3.52

Just for reference, paper PMC9295568 is where these values come from.
